Assayed system: GTP-KRAS-G12D:SOS1 (Homo sapiens (Human), UniProt P01116, G12D)
Sequence (P01116-2 other isoform, or with tags, fused parts or gaps G12D): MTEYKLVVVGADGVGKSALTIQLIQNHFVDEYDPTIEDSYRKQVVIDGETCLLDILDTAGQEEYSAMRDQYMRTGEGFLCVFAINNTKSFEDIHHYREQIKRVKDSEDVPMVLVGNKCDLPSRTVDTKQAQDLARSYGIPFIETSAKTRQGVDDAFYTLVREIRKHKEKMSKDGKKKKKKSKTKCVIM
Experiment summary: GTP-KRAS-G12D:SOS1 binding inhibition
Counter-ions that a name gives are not always drawn.
Measurement kind: pIC50
pIC50 is defined as minus the log10 of a concentration measured in mol/L.

# annotated cases, reported pIC50 shown
Compound | Assayed system | pIC50
CCc1cccc2cc(O)cc(-c3c(F)c4c5c(nc(OC[C@]67C[C@@H](F)CN6C[C@@H](COC)C7)nc5c3F)N3CC5CCC(N5)C3CO4)c12 (single isomer, unassigned) [Compound 18b, dihydrochloride] | GTP-KRAS-G12D:SOS1 (Homo sapiens (Human), UniProt P01116, G12D) | 8.12
Oc1cc(Cl)c2c(c1)C1(CC2)CCc2c(nc(OC[C@@]34CCCN3C[C@H](F)C4)nc2N2CC3CCC(C2)N3)C1F (single isomer, unassigned) [Compound 8a, dihydrochloride] | GTP-KRAS-G12D:SOS1 (Homo sapiens (Human), UniProt P01116, G12D) | 7.87
CCc1cccc2cc(O)cc(-c3c(F)c4c5c(nc(OC[C@]67C[C@@H](F)CN6C[C@@H](CO)C7)nc5c3F)N3CC5CCC(N5)C3CO4)c12 (single isomer, unassigned) [Compound 23a, dihydrochloride] | GTP-KRAS-G12D:SOS1 (Homo sapiens (Human), UniProt P01116, G12D) | 5.43

Problem: Annotate the compound Oc1cc(Cl)c2c(c1)C1(CC2)CCc2c(N3CC4CCC(C3)N4)nc(OC[C@@]34CCCN3C[C@H](F)C4)nc2C1(F)F (single isomer, unassigned) [Compound 9a, dihydrochloride] with its measured pIC50.
Solution: 7.82

Problem: Give recorded pIC50. Cc1cc(N)nc(-c2c(F)c3c4c(nc(OC[C@@]56CCCN5C[C@H](F)C6)nc4c2F)N2C[C@@H]4CCC(N4)[C@@H]2CCO3)c1C(F)(F)F (single isomer, unassigned) [Compound 26a]
Solution: 6.61

Problem: Recall and state the measured pIC50 for CCc1cccc2cc(O)cc(-c3c(F)c4c5c(nc(OC[C@]67C[C@@H](F)CN6C[C@@H](OC)C7)nc5c3F)N3CC5CCC(N5)C3CO4)c12 (single isomer, unassigned) [Compound 16b, dihydrochloride] .
Solution: 8.12

Problem: Fill in pIC50 for record CCc1cccc2cc(O)cc(-c3c(F)c4c5c(nc(OC[C@@]67CCC8(CC8)N6C[C@H](F)C7)nc5c3F)N3CC5CCC(N5)C3CO4)c12 (single isomer, unassigned) [Compound 20b, dihydrochloride]
Solution: 8.06

Problem: Please report pIC50 for the following compound: Oc1cc(Cl)c2c(c1)C1(CC2)CCc2c(nc(OC[C@@]34CCCN3C[C@H](F)C4)nc2N2CC3CCC(C2)N3)C1F (single isomer, unassigned) [Compound 8d, dihydrochloride]
Solution: 6.94

Problem: Give the reported pIC50 for this compound. CCc1cccc2cc(O)cc(-c3c(F)c4c5c(nc(OC[C@@]67C[C@H](O)CN6C[C@H](F)C7)nc5c3F)N3CC5CCC(N5)C3CO4)c12 (single isomer, unassigned) [Compound 15a, dihydrochloride]
Solution: 5.57

###

Assayed system: GTP-KRAS-G12D:SOS1 (Homo sapiens (Human), UniProt P01116, G12D)
Experiment summary: GTP-KRAS-G12D:SOS1 binding inhibition
Structures can show the parent of a compound that is named as a salt.
Reported log10 IC50 values follow for various compounds
The common logarithm of IC50 in nM is what is listed.

Please review the entries below; each comes with its answer.
Compound | Assayed system | Numeric result
CCc1cccc2cc(O)cc(-c3c(F)c4c5c(nc(OC[C@]67C[C@@H](F)CN6C[C@H](CO)C7)nc5c3F)N3CC5CCC(N5)C3CO4)c12 (single isomer, unassigned) [Compound 21b, dihydrochloride] | GTP-KRAS-G12D:SOS1 (Homo sapiens (Human), UniProt P01116, G12D) | 0.86
CCc1cccc2cc(O)cc(-c3c(F)c4c5c(nc(OC[C@]67C[C@@H](F)CN6C[C@@H](COC)C7)nc5c3F)N3CC5CCC(N5)C3CO4)c12 (single isomer, unassigned) [Compound 18a, dihydrochloride] | GTP-KRAS-G12D:SOS1 (Homo sapiens (Human), UniProt P01116, G12D) | 3.29
Oc1cc(-c2c(F)c3c4c(nc(OC[C@@]56CCCN5C[C@H](F)C6)nc4c2F)N2CC4CCC(N4)C2CO3)c2c(C3CC3)cccc2c1 (single isomer, unassigned) [Compound 11b, dihydrochloride] | GTP-KRAS-G12D:SOS1 (Homo sapiens (Human), UniProt P01116, G12D) | 1.27
CCc1cccc2cc(O)cc(-c3c(F)c4c5c(nc(OC[C@@]67CCCN6C[C@H](F)C7)nc5c3F)N3CC5CCC(N5)C3CCO4)c12 (single isomer, unassigned) [Compound 13b, dihydrochloride] | GTP-KRAS-G12D:SOS1 (Homo sapiens (Human), UniProt P01116, G12D) | 3.95
Nc1nc2c(-c3c(F)c4c5c(nc(OC[C@@]67CCCN6C[C@H](F)C7)nc5c3F)N3CC5CCC(N5)C3CO4)ccc(F)c2s1 (some centres unmarked) [Compound 19, dihydrochloride] | GTP-KRAS-G12D:SOS1 (Homo sapiens (Human), UniProt P01116, G12D) | 1.10

Problem: Please report log10 IC50 for the following compound: CCc1cccc2cc(O)cc(-c3c(F)c4c5c(nc(OC[C@]67C[C@@H](F)CN6C[C@@H](CN6CCN(C)CC6)C7)nc5c3F)N3CC5CCC(N5)C3CO4)c12 (single isomer, unassigned) [Compound 29b]
Solution: 1.20

Problem: Provide log10 IC50 value for the following compound: Oc1cc(Cl)c2c(c1)C1(CC2)CCc2c(nc(OC[C@@]34CCCN3C[C@H](F)C4)nc2N2CC3CCC(C2)N3)C1 (single isomer, unassigned) [Compound 2a, dihydrochloride]
Solution: 1.22

Problem: Using known records, supply log10 IC50 for COCCc1cccc2cc(O)cc(-c3c(F)c4c5c(nc(OC[C@@]67CCCN6C[C@H](F)C7)nc5c3F)N3CC5CCC(N5)C3CO4)c12 (single isomer, unassigned) [Compound 12b, dihydrochloride]
Solution: 1.33

Problem: Respond only with log10 IC50 recorded for Cc1cc(N)nc(-c2c(F)c3c4c(nc(OC[C@@]56CCCN5C[C@H](F)C6)nc4c2F)N2CC4CCC(N4)C2CO3)c1C(F)(F)F (single isomer, unassigned) [10a′]
Solution: 2.85

Problem: Tell us which log10 IC50 value is on record for F[C@H]1CN2CCC[C@@]2(COc2nc3c(c(N4CC5CCC(C4)N5)n2)CCC2(CCc4c(Cl)cccc42)C3)C1 (single isomer, unassigned)
Solution: 1.66

Problem: Supply log10 IC50 value. Item: Oc1cc(-c2cc3c4c(nc(OC[C@@]56CCCN5C[C@H](F)C6)nc4c2F)N2C[C@@H]4CC[C@@H](N4)[C@H]2CO3)c2ccccc2c1 [Compound 3, dihydrochloride]
Solution: 1.08

###

Experiment summary: In vivo bioavailability experiment in mice (pharmacokinetics)
Condition context: mouse, plasma; ICR mice, intravenous injection, dose 3 (3 mg/kg in method)
Experimental: Experimental Animals: ICR mice, weighing 20 grams, provided by Sino-British SIPPR Lab Animal Ltd, Shanghai. The compound to be tested was accurately weighed and dissolved in DMSO to prepare a stock solution with a concentration of 15 mg/mL. The compound stock solution was accurately measured and diluted with 0.9% saline and Solutol in a ratio of 8.8:1 to a concentration of 0.3 mg/mL. The solution was clear and transparent, used for intravenous administration. […]
Counter-ions that a name gives are not always drawn.
Measurement kind: clearance (mL/min/kg)
Just the number in mL/min/kg, nothing appended.

Problem: Tell me its clearance given CCc1cccc2cc(O)cc(-c3c(F)c4c5c(nc(OC[C@]67C[C@@H](F)CN6C[C@@H](CN6C[C@@H](C)O[C@@H](C)C6)C7)nc5c3F)N3CC5CCC(N5)C3CO4)c12 (single isomer, unassigned) [Compound 25b, trihydrochloride] as the entry.
Solution: 6.33

Problem: Give reported clearance value for CCc1cccc2cc(O)cc(-c3c(F)c4c5c(nc(OC[C@]67C[C@@H](F)CN6C[C@@H](COC)C7)nc5c3F)N3CC5CCC(N5)C3CO4)c12 (single isomer, unassigned) [Compound 18b, dihydrochloride]
Solution: 24.5

Problem: Report clearance for CCc1cccc2cc(O)cc(-c3c(F)c4c5c(nc(OC[C@@]67CCCN6C[C@H](F)C7)nc5c3F)N3CC5CCC(N5)C3CCO4)c12 (single isomer, unassigned) [13a′]
Solution: 6.5

###

Experiment summary: In vivo bioavailability experiment in mice (pharmacokinetics)
Condition context: mouse, plasma; ICR mice, intravenous injection, dose 3 (3 mg/kg in method); read-out: Steady-state volume of distribution
Structures can show the parent of a compound that is named as a salt.
Measurement kind: Vd
Answer with the value and then the unit.

A selection of reference data follows.
Compound | Vd
CCc1cccc2cc(O)cc(-c3c(F)c4c5c(nc(OC[C@@]67CCCN6C[C@H](F)C7)nc5c3F)N3CC5CCC(N5)C3CCO4)c12 (single isomer, unassigned) [13a′] | 5.33 L/kg
CCc1cccc2cc(O)cc(-c3c(F)c4c5c(nc(OC[C@]67C[C@@H](F)CN6C[C@@H](CN6C[C@@H](C)O[C@@H](C)C6)C7)nc5c3F)N3CC5CCC(N5)C3CO4)c12 (single isomer, unassigned) [Compound 25b, trihydrochloride] | 0.84 L/kg

// next entry
Problem: Could you please provide reported Vd for CCc1cccc2cc(O)cc(-c3c(F)c4c5c(nc(OC[C@]67C[C@@H](F)CN6C[C@@H](COC)C7)nc5c3F)N3CC5CCC(N5)C3CO4)c12 (single isomer, unassigned) [Compound 18b, dihydrochloride] ? Thanks!
Solution: 4.98 L/kg
